experiment: Pharmacokinetic study in rats after single oral administration; assay type: in vivo, Sprague Dawley rats; details: male, Sprague Dawley, rat plasma, 10 mg/kg, n = 6, read-out: t 1/2 z (converted)
Quantity: half-life
Provide the measurement as a number trailed by its unit.

Prompt: What does the record list as half-life for COc1cc2c(Oc3ccc4[nH]c(C)cc4c3F)ccnc2cc1OCC1(N)CC1 ?
Completion: 5.05 h

###

test: Pharmacokinetic study in rats after single oral administration; assay type: in vivo, Sprague Dawley rats; details: male, Sprague Dawley, rat plasma, 10 mg/kg, n = 6
Quantity: CL/F (L/h/kg)
Give bare numbers, in L/h/kg.

Prompt: GET /values?readout=CL/F&item= COc1cc2c(Oc3ccc4[nH]c(C)cc4c3F)ccnc2cc1OCC1(N)CC1
Completion: 56.5

###

assay: Pharmacokinetic study in rats after single oral administration; assay type: in vivo, Sprague Dawley rats; conditions: male, Sprague Dawley, rat plasma, 10 mg/kg, n = 6, read-out: MRT(0-∞)
Quantity: MRT inf (h)
One number for each entry, in h.

Prompt: Looking for the measured MRT inf of COc1cc2c(Oc3ccc4[nH]c(C)cc4c3F)ccnc2cc1OCC1(N)CC1 , can you help?
Completion: 9.2
